Molecular target: Human ASK1 (Homo sapiens)
Construct: expressed in transfected cells; host or cells: HEK293T-AP1
Sequence (Q99683 whole entry): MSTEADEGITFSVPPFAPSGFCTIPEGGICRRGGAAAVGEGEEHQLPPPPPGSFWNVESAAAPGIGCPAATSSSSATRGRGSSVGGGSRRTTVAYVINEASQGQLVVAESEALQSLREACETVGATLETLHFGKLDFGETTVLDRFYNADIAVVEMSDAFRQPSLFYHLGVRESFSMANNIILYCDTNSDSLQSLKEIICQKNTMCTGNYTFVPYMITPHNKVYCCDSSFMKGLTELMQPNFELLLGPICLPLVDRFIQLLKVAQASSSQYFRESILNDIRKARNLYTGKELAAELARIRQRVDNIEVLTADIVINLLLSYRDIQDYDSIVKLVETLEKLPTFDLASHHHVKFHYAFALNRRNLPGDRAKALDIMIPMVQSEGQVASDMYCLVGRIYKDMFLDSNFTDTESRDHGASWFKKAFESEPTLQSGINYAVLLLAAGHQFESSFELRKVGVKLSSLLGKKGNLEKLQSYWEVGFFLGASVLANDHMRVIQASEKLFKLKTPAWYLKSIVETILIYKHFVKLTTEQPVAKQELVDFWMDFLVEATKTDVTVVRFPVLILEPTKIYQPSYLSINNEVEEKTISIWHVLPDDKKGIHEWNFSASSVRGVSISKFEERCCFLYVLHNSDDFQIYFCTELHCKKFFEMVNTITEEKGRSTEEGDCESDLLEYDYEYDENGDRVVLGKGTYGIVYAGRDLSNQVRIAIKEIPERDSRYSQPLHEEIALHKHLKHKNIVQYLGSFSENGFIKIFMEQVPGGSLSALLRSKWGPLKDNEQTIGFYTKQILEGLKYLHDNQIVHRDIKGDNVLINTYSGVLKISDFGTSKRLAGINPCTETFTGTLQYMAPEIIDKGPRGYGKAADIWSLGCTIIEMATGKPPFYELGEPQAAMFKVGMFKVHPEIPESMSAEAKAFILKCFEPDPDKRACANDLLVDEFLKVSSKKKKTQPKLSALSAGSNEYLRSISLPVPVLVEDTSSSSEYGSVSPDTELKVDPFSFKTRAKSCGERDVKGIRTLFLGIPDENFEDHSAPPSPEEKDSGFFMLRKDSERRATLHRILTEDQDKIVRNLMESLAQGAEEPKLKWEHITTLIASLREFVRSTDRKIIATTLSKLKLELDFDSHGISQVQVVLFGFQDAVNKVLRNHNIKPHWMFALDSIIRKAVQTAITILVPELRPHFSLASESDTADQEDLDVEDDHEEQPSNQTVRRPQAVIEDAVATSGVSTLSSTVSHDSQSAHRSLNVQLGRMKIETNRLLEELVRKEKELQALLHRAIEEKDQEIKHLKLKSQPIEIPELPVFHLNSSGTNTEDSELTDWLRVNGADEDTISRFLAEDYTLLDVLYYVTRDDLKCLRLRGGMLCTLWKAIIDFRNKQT
Assay: ASK1 Cell Based Assay (phospho p38 read out in hASK1 transfected HEK293T-AP1 cells)
Conditions: HEK293T-AP1 cells, 1 mM hydrogen peroxide, phospho p38; read-out: Cell Based Assay IC50
pIC50: −log10 of the molar value.
ASSAY METRIC: pIC50

CC(C)n1cnnc1-c1cccc(N2CCN(c3ccncc3)C2=O)n1
< 6.00

Provide each entry's pIC50 from the list below.
1. CNC(=O)C1CCN(c2ccc(N3CCN(c4cccc(-c5nncn5C(C)C)n4)C3=O)cn2)CC1
2. CC(C)NC1CN(c2ccc(N3CCN(c4cccc(-c5nncn5C(C)C)n4)C3=O)cc2)C1
3. CNC(=O)[C@H]1CCN(c2ccc(N3CCN(c4cccc(-c5nncn5C(C)C)n4)C3=O)cc2)C1
4. CC(C)n1cnnc1-c1cccc(N2CCN(c3ccc(C4CCOCC4)cc3)C2=O)n1

Result:
["> 7.00", "< 6.00", 5.81, "< 6.00"]
